- System name: Cytochrome P450 2D6 (Homo sapiens)
- Experimental protocol: Cytochrome panel assay with activity outcomes
- Study conditions: recombinant CYP, pro-luciferin dealkylation, luminescence, p450-cyp2d6; series mostly up to 57.1 µM
Screen size: about 16,000 compounds; about 2,600 (16%) were called active. About 20% were inconclusive and are not listed. Calls come from the whole dose curve; as a rule, active = well fitted curve in the direction sought with a large enough effect; inconclusive = small, poorly fitted or top-dose-only effect, or effect the other way; inactive = no such curve, though single readings can be large or run the other way. Only a sample is shown.
Outcome codes: True = active, False = inactive

Substance smiles	Class
c1ccc(CCN2CCN=C2Cc2ccccc2)cc1	True
Fc1ccc(C2=Nn3c(Cc4ccccc4F)nnc3SC2)cc1	False
CNc1ncc(C(=O)c2ccccc2)s1	False
COc1cc(-c2ccc(=O)[nH]n2)ccc1OC(F)F	False
COc1cccc([C@H]2Oc3ccc(OC)cc3/C(=N\O[C@@H]3O[C@H](COC(C)=O)[C@H](OC(C)=O)[C@H](OC(C)=O)[C@H]3OC(C)=O)[C@@H]2O)c1	True
CCC(CC)C(=O)c1c[nH]c(C(=O)NCCCN2CCOCC2)c1	False
C/C(Cl)=C\Cn1c(N2CCCC2)nc2c1c(=O)[nH]c(=O)n2C	False
CC(=O)c1sc(NC(=O)C(C)C)nc1C	False
CC(=O)OC[C@H]1O[C@@H](O/N=C(\C)CCC(=O)OC[C@@H]2O[C@H](C#Cc3ccccc3)C=C[C@@H]2Oc2ccc(C)cc2)[C@H](OC(C)=O)[C@@H](OC(C)=O)[C@H]1OC(C)=O	True
